Target: Integrin alpha-4/beta-7 (Homo sapiens, UniProt P13612+P26010)
Sequence (P13612 whole entry, the tested form may be a part): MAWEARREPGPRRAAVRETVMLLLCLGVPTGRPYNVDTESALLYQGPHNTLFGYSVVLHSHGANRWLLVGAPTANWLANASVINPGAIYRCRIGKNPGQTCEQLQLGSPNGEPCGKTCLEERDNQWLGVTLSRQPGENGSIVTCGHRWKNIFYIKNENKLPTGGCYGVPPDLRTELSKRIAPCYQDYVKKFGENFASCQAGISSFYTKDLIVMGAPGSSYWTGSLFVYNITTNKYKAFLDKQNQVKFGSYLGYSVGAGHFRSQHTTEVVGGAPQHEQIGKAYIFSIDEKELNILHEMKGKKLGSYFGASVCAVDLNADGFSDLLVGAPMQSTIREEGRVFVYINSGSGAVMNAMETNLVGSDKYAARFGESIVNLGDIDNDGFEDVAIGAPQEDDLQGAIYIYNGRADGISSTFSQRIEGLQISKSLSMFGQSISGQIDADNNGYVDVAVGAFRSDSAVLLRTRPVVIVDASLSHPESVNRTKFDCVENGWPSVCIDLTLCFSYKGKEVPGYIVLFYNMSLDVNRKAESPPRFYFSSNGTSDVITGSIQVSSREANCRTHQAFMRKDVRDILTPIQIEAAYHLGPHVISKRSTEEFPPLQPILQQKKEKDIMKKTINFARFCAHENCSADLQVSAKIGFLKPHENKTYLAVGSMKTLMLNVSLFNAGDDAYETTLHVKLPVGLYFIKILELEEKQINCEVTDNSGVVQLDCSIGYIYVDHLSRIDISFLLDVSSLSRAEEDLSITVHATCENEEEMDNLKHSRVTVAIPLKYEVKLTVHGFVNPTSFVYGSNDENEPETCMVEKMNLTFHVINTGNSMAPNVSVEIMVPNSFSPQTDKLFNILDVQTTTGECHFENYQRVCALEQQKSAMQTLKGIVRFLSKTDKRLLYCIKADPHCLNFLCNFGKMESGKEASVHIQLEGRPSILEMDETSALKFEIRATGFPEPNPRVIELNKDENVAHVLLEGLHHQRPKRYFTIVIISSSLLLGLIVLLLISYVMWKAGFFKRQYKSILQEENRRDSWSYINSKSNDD
Sequence (P26010 whole entry, the tested form may be a part): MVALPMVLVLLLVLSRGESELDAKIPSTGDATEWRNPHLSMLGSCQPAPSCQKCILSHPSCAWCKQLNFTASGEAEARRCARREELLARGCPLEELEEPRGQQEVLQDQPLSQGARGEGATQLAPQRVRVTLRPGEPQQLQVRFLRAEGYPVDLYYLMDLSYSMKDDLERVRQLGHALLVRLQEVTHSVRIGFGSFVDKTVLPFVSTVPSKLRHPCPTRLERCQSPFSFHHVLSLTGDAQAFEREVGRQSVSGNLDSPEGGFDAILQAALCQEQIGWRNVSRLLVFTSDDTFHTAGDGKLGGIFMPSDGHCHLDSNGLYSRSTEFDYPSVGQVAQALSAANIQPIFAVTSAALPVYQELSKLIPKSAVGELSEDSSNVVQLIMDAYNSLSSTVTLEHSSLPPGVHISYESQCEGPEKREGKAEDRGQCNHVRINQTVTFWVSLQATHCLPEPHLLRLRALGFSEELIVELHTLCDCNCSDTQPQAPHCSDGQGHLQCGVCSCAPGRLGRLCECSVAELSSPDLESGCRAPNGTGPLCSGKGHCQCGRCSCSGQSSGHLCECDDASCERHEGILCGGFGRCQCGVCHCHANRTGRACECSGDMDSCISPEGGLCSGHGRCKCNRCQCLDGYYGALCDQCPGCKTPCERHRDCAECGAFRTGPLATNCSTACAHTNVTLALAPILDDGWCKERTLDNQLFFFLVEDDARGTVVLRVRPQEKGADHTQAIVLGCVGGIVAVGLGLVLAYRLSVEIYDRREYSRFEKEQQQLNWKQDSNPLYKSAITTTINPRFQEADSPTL
Experiment: Inhibition of alpha4-beta7 integrin binding to radiolabeled vascular cell adhesion molecule-1 (VCAM-1) Ig fusion protein in human Jurkat cells
Below, each entry is listed alongside its reported IC50.

Compound | IC50, µM
COc1ccccc1-c1ccc(C[C@H](NC(=O)C2(c3ccnnc3)CCCC2)C(=O)O)cc1 | 0.033
COc1ccccc1-c1ccc(C[C@H](NC(=O)C2(c3ccc(C)nc3)CCCC2)C(=O)O)cc1 | 0.0363
COc1ccccc1-c1ccc(C[C@H](NC(=O)C2(c3cccnc3)CCCCC2)C(=O)O)cc1 | 0.158
COc1cc(C2(C(=O)N[C@@H](Cc3ccc(-c4ccccc4OC)cc3)C(=O)O)CCCC2)ccn1 | 0.015
COc1ccccc1-c1ccc(C[C@H](NC(=O)C2(c3ccc(=O)n(C)c3)CCCC2)C(=O)O)cc1 | 0.018
COc1ccccc1-c1ccc(C[C@H](NC(=O)C2(c3cccnc3)CC=CC2)C(=O)O)cc1 | 0.0167
COc1ccccc1-c1ccc(C[C@H](NC(=O)C2(c3cccnc3)CCOCC2)C(=O)O)cc1 | 0.094
COc1ccccc1-c1ccc(C[C@H](NC(=O)C2(c3ccncc3)CCCC2)C(=O)O)cc1 | 0.049
COc1ccccc1-c1ccc(C[C@H](NC(=O)C2(c3cncc4ccccc34)CCCC2)C(=O)O)cc1 | 0.12
COc1ccccc1-c1ccc(C[C@H](NC(=O)C2(c3ccccc3)CCCC2)C(=O)O)cc1 | 0.11
COc1ccccc1-c1ccc(C[C@H](NC(=O)C2(c3cnccc3C)CCCC2)C(=O)O)cc1 | 0.022
COc1ccccc1-c1ccc(C[C@H](NC(=O)C2(c3cncc(Br)c3)CCCC2)C(=O)O)cc1 | 0.165
COc1ccccc1-c1ccc(C[C@H](NC(=O)C2(c3cccnc3)CCC(C)C2)C(=O)O)cc1 (mixture of isomers) | 0.094
COc1ccccc1-c1ccc(C[C@H](NC(=O)C2(c3cccnc3C)CCCC2)C(=O)O)cc1 | 0.044
COc1ccccc1-c1ccc(C[C@H](NC(=O)C2(c3ccc(O)nc3)CCCC2)C(=O)O)cc1 | 0.026
COc1ccccc1-c1ccc(C[C@H](NC(=O)C2(c3ccccn3)CCCC2)C(=O)O)cc1 | 0.215
COc1ccccc1-c1ccc(C[C@H](NC(=O)C2(c3cnc4ccccc4c3)CCCC2)C(=O)O)cc1 | 0.098
COc1ccccc1-c1ccc(C[C@H](NC(=O)C2(c3cccnc3)CCN(C)CC2)C(=O)O)cc1 | 0.051
COc1ccccc1-c1ccc(C[C@H](NC(=O)C2(c3cccnc3)CCN(C(C)=O)CC2)C(=O)O)cc1 | 0.03
COc1ccccc1-c1ccc(C[C@H](NC(=O)C2(c3ccc[n+]([O-])c3)CCCC2)C(=O)O)cc1 | 0.18
COc1ccccc1-c1ccc(C[C@H](NC(=O)C2(c3cccnc3)CCCC2)C(=O)O)cc1 | 0.0099
COc1ccccc1-c1ccc(C[C@H](NC(=O)C2(c3cccnc3)CCNCC2)C(=O)O)cc1 | 0.083
